measurement_target: T1, soluble human FcRn (shFcRn) (human, UniProt P55899 24-297; P61769 21-119)
T1 construct: Biotinylated for the ELISA, amine-coupled to a CM5 chip for SPR; also called biotinylated shFcRn
T1 sequence (P55899 24-297 limits assumed, chain 1 of 2): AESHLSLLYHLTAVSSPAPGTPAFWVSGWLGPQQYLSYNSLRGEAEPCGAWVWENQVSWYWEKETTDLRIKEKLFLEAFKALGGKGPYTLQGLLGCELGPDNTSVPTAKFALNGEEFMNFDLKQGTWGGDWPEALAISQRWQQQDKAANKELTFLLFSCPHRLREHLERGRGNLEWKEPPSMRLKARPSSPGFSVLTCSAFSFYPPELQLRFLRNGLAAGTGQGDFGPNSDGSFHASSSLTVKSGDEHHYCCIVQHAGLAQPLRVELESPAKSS
T1 sequence (P61769 21-119 limits assumed, chain 2 of 2): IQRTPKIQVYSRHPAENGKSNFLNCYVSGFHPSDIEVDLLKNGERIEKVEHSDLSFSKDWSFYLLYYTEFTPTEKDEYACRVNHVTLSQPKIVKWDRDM
assay_remarks: IgG competition ELISA
Bridge positions count the residues as written; N and C are the ends. Square brackets hold non-standard residues; d marks the D form. Ends that are not written are not given here. Pen = CC(C)(S)[C@H](N)C(=O)O
parameter_measured: pIC50
Note on pIC50: it is the negative log10 of concentration, concentration in mol/L.

Prompt: pIC50 for QRF[Pen]TGHFGGLYPCNGP-NH2 (disulfide 4-14; N-terminus assumed; SMILES CC(C)C[C@@H]1NC(=O)CNC(=O)CNC(=O)[C@H](Cc2ccccc2)NC(=O)[C@H](Cc2c[nH]cn2)NC(=O)CNC(=O)[C@H]([C@@H](C)O)NC(=O)[C@@H](NC(=O)[C@H](Cc2ccccc2)NC(=O)[C@H](CCCNC(=N)N)NC(=O)[C@@H](N)CCC(N)=O)C(C)(C)SSC[C@@H](C(=O)N[C@@H](CC(N)=O)C(=O)NCC(=O)N2CCC[C@H]2C(N)=O)NC(=O)[C@@H]2CCCN2C(=O)[C@H](Cc2ccc(O)cc2)NC1=O) [Peptide No. 32] ?
Response: 5.70
